Could you please report measured z-score for the items listed next?
Experiment: MM1S cell viability effects, profiling panel, calcein-AM fluorescence, 48 h, basal (AID 1165);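 further: viability of MM1S multiple myeloma cells under basal unstimulated conditions; test concentration not given here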
Conditions: higher = more signal
Number only, please.

Incoming: Identify measured z-score corresponding to CCN1C(C)=C(C(=O)OC)[C@@H](c2ccccc2)N2C(=O)[C@@]3(C(=O)OC)O[C@@]12[C@@H]1C(=O)N(C)C(=O)[C@@H]13
Outgoing: -1.51

Incoming: Identify measured z-score corresponding to C=CCc1cccc([C@H]2N[C@H](C(=O)O)CC[C@@H]2C)c1
Outgoing: -0.543

Incoming: Identify measured z-score corresponding to COCCOC(=O)N1C(=O)[C@@]2(c3cc(C#CCCO)ccc31)[C@H](c1ccc(O)cc1)N1[C@H](c3ccccc3)[C@H](c3ccccc3)OC(=O)[C@H]1[C@@H]2C(=O)Nc1nc2ccccc2s1
Outgoing: -0.24

Incoming: Identify measured z-score corresponding to C=CC(=O)O[C@@H](Cc1ccccc1)[C@H]1C2C=CCCC=C2CN1Cc1cccc(Cl)c1 (some centres not stated)
Outgoing: -3.14

Incoming: Identify measured z-score corresponding to N#Cc1ccc(NN2C(C(O)CCc3ccccc3)C=CC3C(=O)N(c4ccccc4)C(=O)C32)cc1 (configuration not stated)
Outgoing: 0.197

Incoming: Identify measured z-score corresponding to CN(C)CCCC[C@@H]1NC(=O)[C@@H]2C[C@H](C(=O)NCCCCCNC(=O)CS)[C@H](c3ccc(O)cc3)N2C1=O
Outgoing: -0.0855

Incoming: Identify measured z-score corresponding to CO[C@H]1COC(=O)[C@@H](Cc2ccccc2)NC(=O)[C@@H](C)COC(=O)CC=C[C@@H]1C
Outgoing: 0.221

====

Biological target: Torsin-1A-interacting protein 2 (Homo sapiens) (UniProt Q8NFQ8)
Sequence (Q8NFQ8 whole entry, looked up): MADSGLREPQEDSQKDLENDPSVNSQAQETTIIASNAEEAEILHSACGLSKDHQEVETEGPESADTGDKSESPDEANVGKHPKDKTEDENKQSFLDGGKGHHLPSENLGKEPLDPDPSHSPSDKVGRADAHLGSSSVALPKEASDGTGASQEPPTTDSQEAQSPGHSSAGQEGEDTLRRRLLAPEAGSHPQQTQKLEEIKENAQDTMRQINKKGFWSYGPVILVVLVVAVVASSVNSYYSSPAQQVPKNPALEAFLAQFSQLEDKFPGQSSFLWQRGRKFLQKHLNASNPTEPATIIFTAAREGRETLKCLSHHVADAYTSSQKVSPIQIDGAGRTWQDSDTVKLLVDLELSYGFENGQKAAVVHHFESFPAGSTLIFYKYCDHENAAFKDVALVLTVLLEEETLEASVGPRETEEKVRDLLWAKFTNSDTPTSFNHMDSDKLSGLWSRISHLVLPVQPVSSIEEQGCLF
Assay: LULL1 binders on small-molecule microarray, primary screen, cell lysate, human LULL1 lysate, 635/667 nm fluorescence (AID 1092);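 further: probe is lysate of COS7 cells overexpressing human LULL1; score merges per-feature 667 nm fluorescence with signal-to-noise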
Details: hLULL1 lysate binding, 635 nm fluorescence, higher = more signal
composite z-score of 3 or higher: Yes. Under 3: No.

Incoming: Is composite z-score for CC[C@@H]1C=C(C(=O)O)[C@H](c2ccccc2)N1S(=O)(=O)c1ccc([N+](=O)[O-])cc1 at or above 3?
Outgoing: Yes

Incoming: Is composite z-score for COc1ccc(C(O)C2C=CC3C(=O)N(C)C(=O)C3N2N2CCCCC2)cc1OCc1ccccc1 (configuration not stated) at or above 3?
Outgoing: No

Incoming: Is composite z-score for C=CC[C@]1(C(=O)N2CCCCC2)N=C(c2ccc(OCCCO)cc2)O[C@H]1c1ccccc1N=[N+]=[N-] at or above 3?
Outgoing: Yes

Incoming: Is composite z-score for C=CCNC(=O)[C@H]1[C@@H]2C(=O)O[C@@H](c3ccccc3)[C@@H](c3ccccc3)N2[C@@H](c2ccc(O)cc2)[C@]12C(=O)Nc1ccc(C#CCNC(N)=O)cc12 at or above 3?
Outgoing: No

Incoming: Is composite z-score for C[C@@H]1NC(=O)[C@H](Cc2ccccc2)NC(=O)[C@@]23C(=O)N[C@@H](Cc4ccccc4)C2[C@H](C)[C@@]2(C)O[C@H]2C3/C=C/C/C=C\CNC1=O (some centres not stated) at or above 3?
Outgoing: No

Incoming: Is composite z-score for O=C(NCc1ccccc1)[C@@]1(CCS(=O)(=O)c2ccccc2)COC(c2ccc(OCCCO)cc2)=N1 at or above 3?
Outgoing: Yes

====

Target: Neurogenic locus notch homolog protein 3 (Homo sapiens) (UniProt Q9UM47)
Sequence (Q9UM47 whole entry, looked up): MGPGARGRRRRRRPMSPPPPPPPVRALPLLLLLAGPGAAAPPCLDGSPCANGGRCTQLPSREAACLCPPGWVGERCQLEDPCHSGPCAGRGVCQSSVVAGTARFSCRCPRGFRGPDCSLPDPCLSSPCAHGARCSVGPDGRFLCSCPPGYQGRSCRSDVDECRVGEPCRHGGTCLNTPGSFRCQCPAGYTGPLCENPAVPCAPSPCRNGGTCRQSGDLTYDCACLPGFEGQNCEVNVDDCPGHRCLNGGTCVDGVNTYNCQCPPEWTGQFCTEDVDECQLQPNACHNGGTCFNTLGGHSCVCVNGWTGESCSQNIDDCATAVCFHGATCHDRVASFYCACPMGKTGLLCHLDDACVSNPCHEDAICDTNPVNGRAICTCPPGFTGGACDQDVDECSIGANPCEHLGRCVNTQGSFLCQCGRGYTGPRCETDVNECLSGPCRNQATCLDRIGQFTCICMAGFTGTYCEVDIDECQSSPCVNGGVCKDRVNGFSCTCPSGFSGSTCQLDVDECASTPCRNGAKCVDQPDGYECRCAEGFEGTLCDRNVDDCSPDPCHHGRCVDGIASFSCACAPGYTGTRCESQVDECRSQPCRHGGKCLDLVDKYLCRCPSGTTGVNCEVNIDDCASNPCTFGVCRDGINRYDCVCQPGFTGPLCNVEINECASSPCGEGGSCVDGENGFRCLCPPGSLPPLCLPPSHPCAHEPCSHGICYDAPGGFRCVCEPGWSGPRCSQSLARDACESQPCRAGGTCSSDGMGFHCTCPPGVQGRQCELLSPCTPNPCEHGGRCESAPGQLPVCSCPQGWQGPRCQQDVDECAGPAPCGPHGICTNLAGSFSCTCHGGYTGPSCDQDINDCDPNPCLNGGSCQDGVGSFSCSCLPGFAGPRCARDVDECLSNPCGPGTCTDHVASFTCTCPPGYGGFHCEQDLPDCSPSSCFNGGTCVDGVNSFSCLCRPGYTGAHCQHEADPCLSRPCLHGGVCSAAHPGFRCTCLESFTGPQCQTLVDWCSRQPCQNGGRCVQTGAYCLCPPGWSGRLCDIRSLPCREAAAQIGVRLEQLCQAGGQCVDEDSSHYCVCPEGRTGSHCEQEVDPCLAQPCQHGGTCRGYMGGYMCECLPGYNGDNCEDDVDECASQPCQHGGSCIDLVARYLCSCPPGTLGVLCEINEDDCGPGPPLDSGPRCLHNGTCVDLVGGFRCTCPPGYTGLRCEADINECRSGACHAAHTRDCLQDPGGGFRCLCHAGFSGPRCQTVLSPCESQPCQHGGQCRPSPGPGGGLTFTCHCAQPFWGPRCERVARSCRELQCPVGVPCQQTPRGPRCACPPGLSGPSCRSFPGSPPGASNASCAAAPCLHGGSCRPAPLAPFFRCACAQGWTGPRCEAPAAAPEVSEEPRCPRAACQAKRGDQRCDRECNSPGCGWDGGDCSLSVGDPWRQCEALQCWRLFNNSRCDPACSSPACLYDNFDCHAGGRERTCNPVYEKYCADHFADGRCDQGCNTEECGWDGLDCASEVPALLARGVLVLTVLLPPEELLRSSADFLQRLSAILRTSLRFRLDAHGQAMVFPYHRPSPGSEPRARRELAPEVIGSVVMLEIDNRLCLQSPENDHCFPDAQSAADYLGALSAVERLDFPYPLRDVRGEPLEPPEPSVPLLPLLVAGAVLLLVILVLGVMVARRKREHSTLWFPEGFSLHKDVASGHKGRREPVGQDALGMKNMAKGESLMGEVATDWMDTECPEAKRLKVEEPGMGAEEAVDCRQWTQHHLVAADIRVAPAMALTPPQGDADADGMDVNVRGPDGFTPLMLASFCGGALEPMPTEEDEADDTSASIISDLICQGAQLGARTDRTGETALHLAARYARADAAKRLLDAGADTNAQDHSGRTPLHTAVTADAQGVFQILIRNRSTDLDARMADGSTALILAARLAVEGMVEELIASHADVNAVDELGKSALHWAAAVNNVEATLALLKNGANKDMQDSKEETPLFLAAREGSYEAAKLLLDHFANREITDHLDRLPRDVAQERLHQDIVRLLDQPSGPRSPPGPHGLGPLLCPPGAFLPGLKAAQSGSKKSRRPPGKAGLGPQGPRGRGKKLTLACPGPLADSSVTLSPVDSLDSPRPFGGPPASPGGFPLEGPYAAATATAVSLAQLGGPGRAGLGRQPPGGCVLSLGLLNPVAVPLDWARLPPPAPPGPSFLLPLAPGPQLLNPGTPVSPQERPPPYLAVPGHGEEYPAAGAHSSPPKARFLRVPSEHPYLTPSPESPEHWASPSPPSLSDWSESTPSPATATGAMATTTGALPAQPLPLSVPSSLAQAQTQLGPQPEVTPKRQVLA
Assay: NOTCH3 binders on small-molecule microarray, primary screen, biochemical, 635/667 nm fluorescence (AID 1096)
Conditions: NOTCH3 binding, 635 nm fluorescence, higher = more signal
composite z-score of 0.8 or higher: True. Under 0.8: False.

Incoming: Is composite z-score for C=C(COC)/C(=C/C[C@@H](OC(=O)c1ccncc1)c1ccc(OCCO)cc1)c1cc(C(=O)OC)ccc1OC at or above 0.8?
Outgoing: True

Incoming: Is composite z-score for O=C1C2C=CC(C(O)C#Cc3ccccc3)N(Nc3ccccc3)C2C(=O)N1c1ccccc1 (configuration not stated) at or above 0.8?
Outgoing: False

Incoming: Is composite z-score for CCOC(=O)C[C@H]1[C@H](OC(=O)c2cc3ccccc3oc2=O)[C@@H](NC(=O)C2CCCCC2)c2cc(OCCCO)ccc2N1C(=O)c1ccc2ccccc2n1 at or above 0.8?
Outgoing: True

Incoming: Is composite z-score for CC1CC/C=C\[C@H]2OC34C=CCN(Cn5nnc6ccccc65)C(=O)[C@H]3N(C(C)CO)C(=O)[C@@H]4C2C(=O)O1 (some centres not stated) at or above 0.8?
Outgoing: False

Incoming: Is composite z-score for Cc1cc(C)c(C(O)C2C=CC3C(=O)N(C)C(=O)C3N2N2CCCCC2)c(C)c1 (configuration not stated) at or above 0.8?
Outgoing: True

Incoming: Is composite z-score for C=CCNC(=O)[C@H]1[C@@H]2C(=O)O[C@@H](c3ccccc3)[C@@H](c3ccccc3)N2[C@@H](c2ccccc2OCCO)[C@]12C(=O)N(C(=O)OCCOC)c1ccc(C#CCNC(N)=O)cc12 at or above 0.8?
Outgoing: True

====

Could you please report measured composite z-score for the items listed next?
Molecular target: Epidermal growth factor receptor (Homo sapiens) (UniProt P00533)
Sequence (P00533 whole entry, looked up): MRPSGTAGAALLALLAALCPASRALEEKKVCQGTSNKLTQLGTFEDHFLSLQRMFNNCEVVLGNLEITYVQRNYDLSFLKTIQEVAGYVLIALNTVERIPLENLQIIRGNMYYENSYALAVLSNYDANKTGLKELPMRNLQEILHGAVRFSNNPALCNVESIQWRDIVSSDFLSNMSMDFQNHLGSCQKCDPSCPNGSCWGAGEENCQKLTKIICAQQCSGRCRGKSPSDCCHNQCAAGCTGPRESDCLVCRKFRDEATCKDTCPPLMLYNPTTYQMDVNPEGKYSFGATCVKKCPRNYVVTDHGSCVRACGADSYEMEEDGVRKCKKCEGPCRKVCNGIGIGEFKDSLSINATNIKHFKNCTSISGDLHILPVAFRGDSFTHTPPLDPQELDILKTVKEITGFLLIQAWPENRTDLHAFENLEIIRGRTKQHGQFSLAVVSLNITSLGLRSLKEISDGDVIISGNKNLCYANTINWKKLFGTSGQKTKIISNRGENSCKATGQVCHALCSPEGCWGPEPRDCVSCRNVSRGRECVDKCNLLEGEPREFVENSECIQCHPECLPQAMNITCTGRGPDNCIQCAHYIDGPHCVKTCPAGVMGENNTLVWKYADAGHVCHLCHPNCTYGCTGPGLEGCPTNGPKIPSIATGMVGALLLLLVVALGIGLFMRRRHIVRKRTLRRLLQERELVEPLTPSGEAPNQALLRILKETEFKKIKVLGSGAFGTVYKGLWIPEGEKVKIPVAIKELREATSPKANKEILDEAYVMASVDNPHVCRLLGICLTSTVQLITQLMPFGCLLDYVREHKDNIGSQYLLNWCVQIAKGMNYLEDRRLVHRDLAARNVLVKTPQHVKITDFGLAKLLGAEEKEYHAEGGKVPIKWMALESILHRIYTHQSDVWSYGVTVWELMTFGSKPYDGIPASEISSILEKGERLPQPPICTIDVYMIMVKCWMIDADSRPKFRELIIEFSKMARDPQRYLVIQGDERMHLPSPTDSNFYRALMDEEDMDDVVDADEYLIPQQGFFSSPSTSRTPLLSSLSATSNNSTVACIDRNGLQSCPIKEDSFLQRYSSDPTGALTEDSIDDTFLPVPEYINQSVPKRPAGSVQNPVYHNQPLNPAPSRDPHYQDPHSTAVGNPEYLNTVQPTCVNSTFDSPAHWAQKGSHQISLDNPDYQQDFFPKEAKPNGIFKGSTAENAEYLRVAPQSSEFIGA
Assay: EGFR binders on small-molecule microarrays, primary screen, biochemical, small-molecule microarray, 635 nm fluorescence (AID 1104);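 further: score merges 667 nm emission intensity with spot signal to noise over triplicate slides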
Details: EGFR binding, higher = more signal
Number only, please.

Incoming: Identify measured composite z-score corresponding to C[C@]1(C(=O)NCc2ccccc2)c2ccccc2C(=O)N(Cc2cc(C(F)(F)F)cc(C(F)(F)F)c2)[C@H]1c1ccc(CO)cc1
Outgoing: 0.123

Incoming: Identify measured composite z-score corresponding to [N-]=[N+]=NCc1ccccc1C[C@@]1(C(=O)N2CCOCC2)N=C(c2ccc(OCCCO)cc2)O[C@@H]1c1ccccc1N=[N+]=[N-]
Outgoing: -0.11

Incoming: Identify measured composite z-score corresponding to COC(=O)C1=CC(c2ccc(CO)cc2)=CC(c2cccs2)N(Cc2cccc(OC(F)(F)F)c2)C=C1C(=O)OC (centres undefined)
Outgoing: -0.41

Incoming: Identify measured composite z-score corresponding to COC(=O)[C@H]1[C@@H]2COc3ccccc3[C@H]2N[C@H]1C(=O)OC
Outgoing: 0.261

Incoming: Identify measured composite z-score corresponding to C=CCNC(=O)[C@@H]1[C@H]2C(=O)O[C@H](c3ccccc3)[C@H](c3ccccc3)N2[C@H](c2ccc(OCCO)cc2)[C@@]12C(=O)N(C(=O)OCCOC)c1ccc(C#CC3(O)CCCCCC3)cc12
Outgoing: 0.432

Incoming: Identify measured composite z-score corresponding to [N-]=[N+]=Nc1ccccc1C[C@@]1(C(=O)N2CCOCC2)N=C(c2ccc(OCCCO)cc2)O[C@@H]1c1ccccc1N=[N+]=[N-]
Outgoing: 0.215

Incoming: Identify measured composite z-score corresponding to CC(C)N1CC=CC23O[C@@H]4/C=C\CCCOC(=O)C4[C@H]2C(=O)N(CCCCCO)[C@@H]3C1=O (some centres undefined)
Outgoing: -1.97

Incoming: Identify measured composite z-score corresponding to CCOC(=O)C1=C[C@@H](c2ccccc2)N(S(=O)(=O)c2ccc(C)cc2)[C@H]1c1ccc(F)cc1
Outgoing: 0.158

Incoming: Identify measured composite z-score corresponding to C[C@@H]1NC(=O)[C@H](Cc2ccccc2)NC(=O)[C@@]23C(=O)N[C@@H](Cc4ccccc4)C2[C@H](C)[C@@]2(C)O[C@H]2C3/C=C/C/C=C\CNC1=O (some centres undefined)
Outgoing: -0.202

Incoming: Identify measured composite z-score corresponding to Cc1ccc(S[C@]2(C(=O)NCCCN(C)C)CC(=O)N(C3CCCCC3)[C@@H]2c2ccc(CO)cc2I)cc1
Outgoing: -1

Incoming: Identify measured composite z-score corresponding to CO[C@H]1COC(=O)[C@@H](Cc2ccccc2)NC(=O)[C@@H](C)COC(=O)CC=C[C@@H]1C
Outgoing: 0.954

Incoming: Identify measured composite z-score corresponding to CO[C@H]1COC(=O)CC=C[C@@H](C)COC(=O)[C@@H](C)NC(=O)CC=C[C@@H]1C
Outgoing: 1.39

Incoming: Identify measured composite z-score corresponding to COC(=O)[C@@]1(Cc2ccc(OC)cc2)[C@H]2c3cc(C(=O)N(C)C)n(Cc4ccc(C)c(F)c4F)c3C[C@H]2CN1C(=O)c1ccccc1
Outgoing: -0.902

Incoming: Identify measured composite z-score corresponding to COCC(=C=CC[C@H](O)c1ccc(OCCO)cc1)C[C@H](O)c1ccccn1
Outgoing: -0.829

Incoming: Identify measured composite z-score corresponding to CO[C@@H]1COC(=O)[C@H](C)NC(=O)CC=C[C@@H](C)[C@H](NS(=O)(=O)c2ccc(C)cc2)COC(=O)CC=C[C@@H]1C
Outgoing: 0.286

Incoming: Identify measured composite z-score corresponding to COCCOC(=O)N1C(=O)[C@@]2(c3cc(C#CCNC(N)=O)ccc31)[C@H](c1ccc(OCCO)cc1)N1[C@H](c3ccccc3)[C@H](c3ccccc3)OC(=O)[C@H]1[C@@H]2C(=O)Nc1nc2ccccc2s1
Outgoing: 0.0231

Incoming: Identify measured composite z-score corresponding to COc1cc(CO)cc(I)c1O[C@H]1C=C(C(=O)NCCO)C[C@@H](N(CC2CCCCC2)C(=O)c2cc3ccccc3oc2=O)[C@@H]1O
Outgoing: 0.6

Incoming: Identify measured composite z-score corresponding to Cc1ccc(N2C(=O)c3ccccc3[C@@H](C(=O)NCC(F)(F)F)[C@@H]2c2ccc(CO)cc2)nc1
Outgoing: -2.69

Incoming: Identify measured composite z-score corresponding to CC(=O)NCCCC[C@@H]1NC(=O)[C@@H]2C[C@H](C(=O)NCc3ccc(F)cc3)[C@H](c3cccc(OCCO)c3)N2C1=O
Outgoing: -0.148

Incoming: Identify measured composite z-score corresponding to Cc1ccc(S(=O)(=O)N[C@H]2COC(=O)CC=C[C@H](C)COC(=O)N[C@@H](C)C(=O)CC=C[C@@H]2C)cc1
Outgoing: 0.831

Incoming: Identify measured composite z-score corresponding to C[C@H]1COC(=O)[C@H](Cc2ccccc2)NC(=O)[C@@H](C)COC(=O)[C@H](Cc2ccccc2)NC1=O
Outgoing: 0.485

Incoming: Identify measured composite z-score corresponding to CCN1C(C)=C(C(=O)OC)[C@@H](c2ccccc2)N2C(=O)[C@@]3(C(=O)OC)O[C@@]12[C@@H]1C(=O)N(C)C(=O)[C@@H]13
Outgoing: 0.471

Incoming: Identify measured composite z-score corresponding to CC(C)[Si]1(C(C)C)OCc2cc(C3CC3)nc(-c3ccccc3)c21
Outgoing: -0.385

Incoming: Identify measured composite z-score corresponding to C=CCC(OC(C)=O)[C@@H]1[C@@H](N(Cc2ccc(-c3ccccc3)cc2)C(=O)c2ccc(C)cc2)c2cc(OCCCO)ccc2N1C(=O)c1ccc(-c2ccccc2)cc1 (some centres undefined)
Outgoing: -0.0222

Incoming: Identify measured composite z-score corresponding to CC(C)=C1C(=O)C(c2ccccc2)=C2CN3C(=O)N(CCc4ccccc4)C(=O)[C@]3(Cc3ccccc3)[C@H]21
Outgoing: -0.972

Incoming: Identify measured composite z-score corresponding to CC(=O)Nc1ccc([C@H]2[C@H](C)CC[C@H]3C(=O)N4[C@@H](CC[C@@H](C)[C@@H]4c4ccc(NC(C)=O)cc4)C(=O)N32)cc1
Outgoing: 0.168

Incoming: Identify measured composite z-score corresponding to CCOC(=O)C1=CCC(c2cccc3ccccc23)N(S(=O)(=O)c2ccc(C)cc2)C1 (centres undefined)
Outgoing: 0.385

Incoming: Identify measured composite z-score corresponding to CO[C@@H]1COC(=O)CC=C[C@@H](C)[C@H](OC)COC(=O)CC=C[C@H]1C
Outgoing: 0.346

Incoming: Identify measured composite z-score corresponding to CCCCCCc1nc(-c2cc(C)c(OC)c(C)c2)cc2c1[Si](C(C)C)(C(C)C)O[C@H]2c1ccccc1
Outgoing: -0.394
